Biological target: Calcium/calmodulin-dependent protein kinase type II subunit beta (Homo sapiens) (UniProt Q13554)
Sequence (Q13554 whole entry): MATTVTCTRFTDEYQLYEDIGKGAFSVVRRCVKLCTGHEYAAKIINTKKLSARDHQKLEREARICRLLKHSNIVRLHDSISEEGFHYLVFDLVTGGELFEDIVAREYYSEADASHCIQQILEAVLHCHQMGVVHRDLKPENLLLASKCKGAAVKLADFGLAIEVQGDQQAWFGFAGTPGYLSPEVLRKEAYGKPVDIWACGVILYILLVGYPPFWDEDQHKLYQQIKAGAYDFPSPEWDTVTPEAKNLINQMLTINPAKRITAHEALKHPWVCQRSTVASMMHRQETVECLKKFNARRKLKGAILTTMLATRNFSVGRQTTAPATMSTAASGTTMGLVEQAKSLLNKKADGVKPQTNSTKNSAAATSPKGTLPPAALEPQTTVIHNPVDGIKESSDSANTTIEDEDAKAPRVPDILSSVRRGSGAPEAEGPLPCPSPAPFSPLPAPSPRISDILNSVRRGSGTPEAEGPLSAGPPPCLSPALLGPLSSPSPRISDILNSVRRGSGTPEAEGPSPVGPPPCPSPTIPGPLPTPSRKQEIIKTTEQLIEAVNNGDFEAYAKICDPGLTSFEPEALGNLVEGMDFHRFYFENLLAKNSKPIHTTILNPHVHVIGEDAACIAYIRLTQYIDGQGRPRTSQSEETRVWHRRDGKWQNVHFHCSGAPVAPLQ
Settings: at 10 µM
Experimental endpoint: residual activity

- O=C1NC(=O)C(c2cn(CCCO)c3ncccc23)=C1c1cnccn1: 70%
- COc1ccc2c(c1)c(C1=C(c3c[nH]c4ccccc34)C(=O)NC1=O)cn2CCCN(C)C: 28%
- Fc1ccc(-c2nc3n(c2-c2ccncc2)CCS3)cc1: 95%
- Oc1cccc(-c2nc(N3CCOCC3)c3oc4ncccc4c3n2)c1: 90%
- COc1ccc(-c2cnc3c(-c4ccsc4)cnn3c2)cc1: 89%
- NC(=O)Nc1sc(-c2ccc(F)cc2)cc1C(N)=O: 40%
- CCN1/C(=C/C(C)=O)Sc2ccc(OC)cc21: 70%
- N#C/C(=C1/Nc2ccccc2S1)c1ccnc(NCCc2cccnc2)n1: 25%
- O=C1NC(=O)c2c1c1c3ccccc3[nH]c1n1cncc21: 14%
- N#Cc1c(NC(=O)c2cccc3ccccc23)sc2c1CCCC2: 81%
- O=C(c1cc2cc(O)ccc2[nH]1)c1cc2cc(O)ccc2[nH]1: 14%
- CN(C)S(=O)(=O)c1ccc2c(c1)/C(=C/c1cc3c([nH]1)CCCC3)C(=O)N2: 59%
- Nc1ncnc2c1c(-c1ccc(Oc3ccccc3)cc1)cn2C1CCCC1: 57%
- N#C/C(=C\c1ccc(O)c(O)c1)C(=O)NCc1ccccc1: 89%
- CC(C)N(CCC(=O)c1ccc2ccccc2c1)Cc1ccccc1: 84%
- Nc1nc(Nc2ccc(S(N)(=O)=O)cc2)nn1C(=O)c1c(F)cccc1F: 43%
- CCCCc1c(-c2ccc(OC)cc2)[nH]c2nccnc12: 84%
- CC(C)[C@H](CO)Nc1nc(Nc2cc(N)cc(Cl)c2)c2ncn(C(C)C)c2n1: 58%
- CCOC(=O)c1c(C)[nH]c(/C=C2\C(=O)Nc3ccccc32)c1C: 93%
- O=c1cc(N2CCNCC2)oc2c(-c3ccccc3)cccc12: 84%
- COc1cc2c(cc1OC)-c1n[nH]c(Nc3cccc(F)c3)c1C2: 56%
- Nc1nccc(-c2c(-c3ccc(F)cc3)ncn2C2CCNCC2)n1: 55%
- O=C1Cc2c([nH]c3ccc([N+](=O)[O-])cc23)-c2ccccc2N1: 76%
- O=C1Nc2ccc(Cl)cc2/C1=C/c1cc(Cl)c(O)c(Cl)c1: 23%
- CCCCc1c(-c2ccc(O)cc2)[nH]c2nccnc12: 51%
- CC(C)c1nn(-c2c(Cl)cccc2Cl)c2nc(Cc3ccc(OCCO)cc3)[nH]c(=O)c12: 59%
- O=c1cc(N2CCOCC2)oc2c1ccc1ccccc12: 72%
- O=C(NC(NC(=S)Nc1ccc(F)c([N+](=O)[O-])c1)C(Cl)(Cl)Cl)C(c1ccccc1)c1ccccc1 (stereo not drawn): 72%

###

Entries annotated with measured residual activity
Target: Rho-associated protein kinase 2 (Homo sapiens)
Settings: at 10 µM
Experimental endpoint: residual activity (%)

* NC(=O)c1cccc(-c2cc(Nc3ccc(OC(F)(F)F)cc3)ncn2)c1 | 94
* NC(=O)Nc1sc(-c2ccc(F)cc2)cc1C(N)=O | 53
* O=c1cc(N2CCOCC2)oc2c(-c3ccccc3)cccc12 | 73
* CC(C)(C)c1nc2c3ccc(F)cc3c3c(=O)[nH]ccc3c2[nH]1 | 58
* COc1cc2nccc(Oc3ccc(NC(=S)NC(=O)c4ccccc4C)cc3)c2cc1OC | 70
* O=C(c1cc2cc(O)ccc2[nH]1)c1cc2cc(O)ccc2[nH]1 | 24
* CC(C)c1nn(-c2c(Cl)cccc2Cl)c2nc(Cc3ccc(OCCO)cc3)[nH]c(=O)c12 | 96
* O=C1Nc2ccccc2/C1=C\c1c(Cl)[nH]c2ccccc12 | 81
* COc1cc2ncnc(Nc3cccc(Cl)c3)c2cc1OC | 87
* N#Cc1c(NC(=O)c2cccc3ccccc23)sc2c1CCCC2 | 99
* Cn1c2ccccc2c2c3c(c4c5ccccc5n(CCC#N)c4c21)CNC3=O | 31
* O=c1cc(N2CCOCC2)oc2c1ccc1ccccc12 | 67
* CCCC(=O)Oc1ccc2[nH]c(C(=O)c3cc4ccccc4[nH]3)cc2c1 | 83
* O=c1cc(N2CCNCC2)oc2c(-c3ccccc3)cccc12 | 80
* O=C1NC(=O)c2c1c1c3ccccc3[nH]c1n1cncc21 | 85
* O=C(c1ccccc1)c1ccc(N2CCOCC2)cc1O | 90
* O=S(=O)(c1cccc2cnccc12)N1CCCNCC1 | 4

###

Biological target: Calcium/calmodulin-dependent protein kinase type II subunit gamma (Homo sapiens) (UniProt Q13555)
Sequence (Q13555 whole entry): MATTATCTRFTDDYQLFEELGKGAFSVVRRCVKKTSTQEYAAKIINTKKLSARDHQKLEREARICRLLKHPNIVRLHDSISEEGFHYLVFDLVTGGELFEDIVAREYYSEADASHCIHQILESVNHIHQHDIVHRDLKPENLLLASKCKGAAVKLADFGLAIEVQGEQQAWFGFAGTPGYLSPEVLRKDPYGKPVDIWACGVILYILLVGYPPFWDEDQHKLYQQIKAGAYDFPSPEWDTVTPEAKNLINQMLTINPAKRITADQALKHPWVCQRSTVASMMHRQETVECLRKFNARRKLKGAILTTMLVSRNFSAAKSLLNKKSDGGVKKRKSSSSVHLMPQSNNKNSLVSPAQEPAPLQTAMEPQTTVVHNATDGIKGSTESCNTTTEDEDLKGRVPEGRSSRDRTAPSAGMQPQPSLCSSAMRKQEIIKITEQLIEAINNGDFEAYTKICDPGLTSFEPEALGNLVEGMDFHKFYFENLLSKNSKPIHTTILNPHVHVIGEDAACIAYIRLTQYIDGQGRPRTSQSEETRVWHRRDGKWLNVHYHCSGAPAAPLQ
Conditions: at 1 µM
residual activity listing for selected molecules.
Experimental endpoint: residual activity (%)

* N#C/C(=C1/Nc2ccccc2S1)c1ccnc(NCCc2cccnc2)n1 | 80
* Nc1n[nH]c2nc3ccccc3nc12 | 86
* CC(C)(C)n1nc(Cc2cccc3ccccc23)c2c(N)ncnc21 | 106
* O=C1Nc2ccc(Cl)cc2/C1=C/c1cc(Cl)c(O)c(Cl)c1 | 62
* CC(C)(C)c1nc2c3ccc(F)cc3c3c(=O)[nH]ccc3c2[nH]1 | 21
* O=c1cc(N2CCOCC2)oc2c1ccc1ccccc12 | 104

###

Collected residual activity values appear next to each entry.
Biological target: Serine/threonine-protein kinase 10 (Homo sapiens) (UniProt O94804)
Sequence (O94804 whole entry, looked up): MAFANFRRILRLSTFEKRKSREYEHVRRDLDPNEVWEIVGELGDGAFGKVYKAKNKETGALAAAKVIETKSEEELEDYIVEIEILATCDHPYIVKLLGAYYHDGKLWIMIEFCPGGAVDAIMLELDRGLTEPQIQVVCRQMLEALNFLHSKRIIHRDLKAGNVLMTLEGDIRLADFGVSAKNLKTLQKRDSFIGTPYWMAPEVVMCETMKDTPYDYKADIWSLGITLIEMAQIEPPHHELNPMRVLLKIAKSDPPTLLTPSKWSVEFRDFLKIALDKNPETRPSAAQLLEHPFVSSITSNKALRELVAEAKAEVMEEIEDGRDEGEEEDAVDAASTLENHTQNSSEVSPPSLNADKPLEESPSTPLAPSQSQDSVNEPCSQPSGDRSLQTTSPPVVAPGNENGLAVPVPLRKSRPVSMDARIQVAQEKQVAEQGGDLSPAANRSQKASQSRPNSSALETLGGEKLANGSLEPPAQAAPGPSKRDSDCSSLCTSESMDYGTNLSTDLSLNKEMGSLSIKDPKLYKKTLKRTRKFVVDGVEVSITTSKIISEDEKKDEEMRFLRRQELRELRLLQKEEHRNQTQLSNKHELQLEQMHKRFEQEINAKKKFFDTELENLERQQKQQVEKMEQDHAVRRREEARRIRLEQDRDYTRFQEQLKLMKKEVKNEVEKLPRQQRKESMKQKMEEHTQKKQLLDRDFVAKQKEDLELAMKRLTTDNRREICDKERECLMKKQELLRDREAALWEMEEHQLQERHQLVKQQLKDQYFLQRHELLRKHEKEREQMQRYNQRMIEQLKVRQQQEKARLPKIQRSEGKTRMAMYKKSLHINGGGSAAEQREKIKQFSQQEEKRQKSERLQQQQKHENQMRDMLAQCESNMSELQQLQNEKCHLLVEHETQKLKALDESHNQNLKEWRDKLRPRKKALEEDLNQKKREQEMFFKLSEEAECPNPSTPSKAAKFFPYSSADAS
Conditions: at 10 µM
Experimental endpoint: residual activity (%)

* O=C1Nc2ccccc2/C1=C\c1c(Cl)[nH]c2ccccc12 | 36
* CC(C)(C)n1nc(Cc2cccc3ccccc23)c2c(N)ncnc21 | 41
* O=C1NC(=O)c2c1c1c3ccccc3[nH]c1n1cncc21 | 58
* O=C(Nc1ccc(Cl)cc1)c1ccccc1NCc1ccncc1 | 64
* O=c1cc(N2CCNCC2)oc2c(-c3ccccc3)cccc12 | 89
* O=C1C(Cl)=C(N2C(=O)CCC2=O)C(=O)c2ccccc21 | 90
* O=c1cc(N2CCOCC2)oc2c1ccc1ccccc12 | 91
* CCCCc1c(-c2ccc(O)cc2)[nH]c2nccnc12 | 90
* c1ccc(-c2cnc(Nc3ccc(OCCN4CCCC4)cc3)s2)cc1 | 55
* O=S(=O)(NCCNC/C=C/c1ccc(Br)cc1)c1cccc2cnccc12 | 53
* COc1cc2nccc(Oc3ccc(NC(=O)Nc4cc(C)on4)c(Cl)c3)c2cc1OC | 8

###

Molecular target: Serine/threonine-protein kinase D1 (Homo sapiens)
Sequence (whole entry): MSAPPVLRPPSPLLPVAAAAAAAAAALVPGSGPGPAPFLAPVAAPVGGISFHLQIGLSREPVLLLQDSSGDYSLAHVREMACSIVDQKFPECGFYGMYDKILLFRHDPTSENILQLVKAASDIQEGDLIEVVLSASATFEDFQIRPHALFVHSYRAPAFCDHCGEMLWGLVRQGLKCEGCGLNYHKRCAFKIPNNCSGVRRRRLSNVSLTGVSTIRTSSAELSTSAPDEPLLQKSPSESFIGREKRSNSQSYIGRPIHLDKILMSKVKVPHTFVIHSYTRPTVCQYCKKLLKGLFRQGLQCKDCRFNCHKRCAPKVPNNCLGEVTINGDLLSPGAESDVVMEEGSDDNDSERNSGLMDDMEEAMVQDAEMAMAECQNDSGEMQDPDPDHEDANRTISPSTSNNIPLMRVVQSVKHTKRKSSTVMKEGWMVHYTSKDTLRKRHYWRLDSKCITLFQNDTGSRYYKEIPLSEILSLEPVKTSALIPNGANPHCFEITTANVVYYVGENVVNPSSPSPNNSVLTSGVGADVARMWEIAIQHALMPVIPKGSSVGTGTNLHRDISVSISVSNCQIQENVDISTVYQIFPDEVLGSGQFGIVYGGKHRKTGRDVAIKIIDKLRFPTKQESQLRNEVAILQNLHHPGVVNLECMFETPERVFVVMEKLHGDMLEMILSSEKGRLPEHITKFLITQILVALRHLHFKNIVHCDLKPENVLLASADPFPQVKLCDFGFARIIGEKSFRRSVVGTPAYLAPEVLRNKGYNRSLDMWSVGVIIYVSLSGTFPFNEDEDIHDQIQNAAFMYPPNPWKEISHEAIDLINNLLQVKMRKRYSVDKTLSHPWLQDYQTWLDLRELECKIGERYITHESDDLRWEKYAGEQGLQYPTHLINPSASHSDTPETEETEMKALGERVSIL
Settings: at 1 µM
Experimental endpoint: residual activity (%)

* NC(=O)Nc1sc(-c2ccc(F)cc2)cc1C(N)=O | 58
* CC(C)(C)c1nc2c3ccc(F)cc3c3c(=O)[nH]ccc3c2[nH]1 | 8
* COc1cc2c(cc1OC)-c1n[nH]c(Nc3cccc(F)c3)c1C2 | 78
* CN([C@@H](Cc1ccc(OS(=O)(=O)c2cccc3cnccc23)cc1)C(=O)N1CCN(c2ccccc2)CC1)S(=O)(=O)c1cccc2cnccc12 | 113
* CC(C)N(CCC(=O)c1ccc2ccccc2c1)Cc1ccccc1 | 74
* Nc1n[nH]c2nc3ccccc3nc12 | 83
* COc1ccc(COc2ccc(Cc3cnc(N)nc3N)cc2OC)cc1 | 81
* O=c1cc(N2CCNCC2)oc2c(-c3ccccc3)cccc12 | 96
* O=C1NC(=O)c2c1c1c3ccccc3[nH]c1n1cncc21 | 41
* NCCNc1ncc(C(N)=O)c(Nc2cccc(C(F)(F)F)c2)n1 | 35
* CCN(CC)CCNC(=O)c1c(C)[nH]c(/C=C2\C(=O)Nc3ccc(Cl)cc32)c1C | 38
* Nc1ncnc2c1cnn2-c1ccccc1 | 92
* O=C1Nc2ccccc2/C1=C\c1c(Cl)[nH]c2ccccc12 | 99
* CCCC(=O)Oc1ccc2[nH]c(C(=O)c3cc4ccccc4[nH]3)cc2c1 | 101
* Nc1nc(Nc2ccc(S(N)(=O)=O)cc2)nn1C(=O)c1c(F)cccc1F | 75
* O=C1Cc2c([nH]c3ccc(Br)cc23)-c2ccccc2N1 | 99
* NC(=O)c1ccc(-c2nc(-c3ccc4c(c3)OCCO4)c(-c3ccccn3)[nH]2)cc1 | 87
* CN(C)S(=O)(=O)c1ccc2c(c1)/C(=C/c1cc3c([nH]1)CCCC3)C(=O)N2 | 91
* COc1ccc(-c2cnc3c(-c4ccsc4)cnn3c2)cc1 | 84
* COc1ccc(Cl)cc1NC(=O)Nc1cc(C)nc2ccccc12 | 95
* CC(C)[C@H](CO)Nc1nc(Nc2cc(N)cc(Cl)c2)c2ncn(C(C)C)c2n1 | 99
* O=S(=O)(c1cccc2cnccc12)N1CCCNCC1 | 84
* O=C(c1ccccc1)c1ccc(N2CCOCC2)cc1O | 95
* Cc1cc(C)c(/C=C2\C(=O)Nc3ccccc32)[nH]1 | 78
* Cn1sc(=O)n(Cc2ccccc2)c1=O | 90
* O=c1c(-c2ccc(F)cc2)c(-c2ccncc2)[nH]n1-c1ccc(Cl)cc1 | 99
* O=C(O)/C=C/c1cc(Br)c(Br)c(Br)c1Br | 109
* CCN1/C(=C/C(C)=O)Sc2ccc(OC)cc21 | 59
* N#C/C(=C1/Nc2ccccc2S1)c1ccnc(NCCc2cccnc2)n1 | 73
